tested on: 556581-035-R-J1-PDC complex spheroid growth; experiment: Anticancer human tumor 556581-035-R-J1-PDC patient-derived ovarian carcinoma cell line growth inhibition [AhR]; conditions: second compound 0.316 µM; first compound 0.1 µM; stronger effect = lower value
Entries and their measured viability, T/C follow.
Report the figure in % without appending any unit label.

Nc1ncn(C2CC(O)C(CO)O2)c(=O)n1 (stereo not drawn) + CC(CO)NC(=O)c1cc(-c2ccc(Cl)cc2)nn(-c2cnn(C)c2)c1=O = 78.4

Report viability, T/C under test system 556581-035-R-J1-PDC complex spheroid growth for CC1COCCN1c1cc(-c2ccnn2C)c2ccnc(-c3ccn[nH]3)c2n1 (stereo not drawn) + Cc1cncc(-c2nc(NCCc3c[nH]c4ccccc34)c3ncn(C(C)C)c3n2)c1 . 83

Print 556581-035-R-J1-PDC complex spheroid growth viability, T/C for COc1ccc([C@@H](O)c2cc(-c3ncnc4cc(N5CCOCC5)ccc34)c(F)cc2Cl)nn1 + CC(CO)NC(=O)c1cc(-c2ccc(Cl)cc2)nn(-c2cnn(C)c2)c1=O . 108

---

test system: 556581-035-R-J1-PDC complex spheroid growth; assay: Anticancer human tumor 556581-035-R-J1-PDC cell line growth inhibition [AhR]; settings: curve of first compound; second compound 3.16 µM
Quick reference for IC50 among some compounds

COc1cccc2c1C(=O)c1c(O)c3c(c(O)c1C2=O)CC(O)(C(=O)CO)CC3OC1CC(N)C(O)C(C)O1 (stereo unspecified) + Cc1cncc(-c2nc(NCCc3c[nH]c4ccccc34)c3ncn(C(C)C)c3n2)c1 = 349 nM
CC(C)c1c(-c2ccccc2)nc2c(C#N)c[nH]n2c1=O + Cc1cncc(-c2nc(NCCc3c[nH]c4ccccc34)c3ncn(C(C)C)c3n2)c1 = > 10000 nM
Cn1ncnc1C1c2n[nH]c(=O)c3cc(F)cc(c23)NC1c1ccc(F)cc1 (stereo unspecified) + Cc1ccccc1N=Nc1ccc(NC(=O)c2ccnn2C)c(C)c1 = > 100 nM
Nc1ccccc1NC(=O)c1ccc(CNC(=O)OCc2cccnc2)cc1 + CC(CO)NC(=O)c1cc(-c2ccc(Cl)cc2)nn(-c2cnn(C)c2)c1=O = 1440 nM
CCN(c1cc(-c2ccc(CN3CCOCC3)cc2)cc(C(=O)NCc2c(C)cc(C)[nH]c2=O)c1C)C1CCOCC1 + CC(CO)NC(=O)c1cc(-c2ccc(Cl)cc2)nn(-c2cnn(C)c2)c1=O = > 3000 nM

Next:
GET IC50 | system: 556581-035-R-J1-PDC complex spheroid growth | item: CC1COCCN1c1cc(C2(S(C)(=N)=O)CC2)nc(-c2ccnc3[nH]ccc23)n1 (stereo unspecified) + CC(CO)NC(=O)c1cc(-c2ccc(Cl)cc2)nn(-c2cnn(C)c2)c1=O > 10000 nM

---

Here the recorded viability, T/C is given for each entry.
Test system: 556581-035-R-J1-PDC complex spheroid growth
Experiment: Anticancer human tumor 556581-035-R-J1-PDC cell line growth inhibition [AhR];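 for viability, T/C: compound exposure lasted 7 days; 100% = DMSO vehicle control growth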
Conditions: second compound 0.316 µM; first compound 3.16 µM; stronger effect = lower value
Excerpt: Multicellular complex tumor spheroid response to aryl hydrocarbon receptor antagonists in combination with a variety of drugs and investigational agents in selected tumor cell lines […] Compounds. […] If the clinical Cmax for an agent had not been determined, the highest concentration tested was 10 microM (Table 1). […]
The answer is to be given in %; state only the numeric part.

CC1COCCN1c1cc(C2(S(C)(=N)=O)CC2)nc(-c2ccnc3[nH]ccc23)n1 (stereo unspecified) + Cc1cncc(-c2nc(NCCc3c[nH]c4ccccc34)c3ncn(C(C)C)c3n2)c1 = 82.5
CC(C)c1c(-c2ccccc2)nc2c(C#N)c[nH]n2c1=O + Cc1cncc(-c2nc(NCCc3c[nH]c4ccccc34)c3ncn(C(C)C)c3n2)c1 = 95.6
Nc1ccccc1NC(=O)c1ccc(CNC(=O)OCc2cccnc2)cc1 + CC(CO)NC(=O)c1cc(-c2ccc(Cl)cc2)nn(-c2cnn(C)c2)c1=O = 34.9
COc1cccc2c1C(=O)c1c(O)c3c(c(O)c1C2=O)CC(O)(C(=O)CO)CC3OC1CC(N)C(O)C(C)O1 (stereo unspecified) + Cc1ccccc1N=Nc1ccc(NC(=O)c2ccnn2C)c(C)c1 = 3.1
COc1cc(Nc2ncc3c(n2)-c2ccc(Cl)cc2C(c2c(F)cccc2OC)=NC3)ccc1C(=O)O + Cc1cncc(-c2nc(NCCc3c[nH]c4ccccc34)c3ncn(C(C)C)c3n2)c1 = 62.1
CC1(C)CCC(CN2CCN(c3ccc(C(=O)NS(=O)(=O)c4ccc(NCC5CCOCC5)c([N+](=O)[O-])c4)c(Oc4cnc5[nH]ccc5c4)c3)CC2)=C(c2ccc(Cl)cc2)C1 + Cc1cncc(-c2nc(NCCc3c[nH]c4ccccc34)c3ncn(C(C)C)c3n2)c1 = 96.3

Provide the reported viability, T/C (system: 556581-035-R-J1-PDC complex spheroid growth) for COc1cccc2c1C(=O)c1c(O)c3c(c(O)c1C2=O)CC(O)(C(=O)CO)CC3OC1CC(N)C(O)C(C)O1 (stereo unspecified) + Cc1cncc(-c2nc(NCCc3c[nH]c4ccccc34)c3ncn(C(C)C)c3n2)c1 0.61

Report viability, T/C under test system 556581-035-R-J1-PDC complex spheroid growth for COc1ccc([C@@H](O)c2cc(-c3ncnc4cc(N5CCOCC5)ccc34)c(F)cc2Cl)nn1 + Cc1cncc(-c2nc(NCCc3c[nH]c4ccccc34)c3ncn(C(C)C)c3n2)c1 . 60.8

Enter viability, T/C (test system 556581-035-R-J1-PDC complex spheroid growth) for Nc1ccn(C2OC(CO)C(O)C2(F)F)c(=O)n1 (stereo unspecified) + Cc1ccccc1N=Nc1ccc(NC(=O)c2ccnn2C)c(C)c1 35.4

Answer briefly: viability, T/C recorded on 556581-035-R-J1-PDC complex spheroid growth for COc1cc(Nc2ncc3c(n2)-c2ccc(Cl)cc2C(c2c(F)cccc2OC)=NC3)ccc1C(=O)O + Cc1ccccc1N=Nc1ccc(NC(=O)c2ccnn2C)c(C)c1 61.1

Using 556581-035-R-J1-PDC complex spheroid growth as the test system, report measured viability, T/C of COc1cc(C2c3cc4c(cc3C(OC3OC5COC(C)OC5C(O)C3O)C3COC(=O)C23)OCO4)cc(OC)c1O (stereo unspecified) + Cc1ccccc1N=Nc1ccc(NC(=O)c2ccnn2C)c(C)c1 . 71.5
